tested-on: human recombinant Bcl-XL protein (Homo sapiens, UniProt Q07817)
Sequence (Q07817 whole entry): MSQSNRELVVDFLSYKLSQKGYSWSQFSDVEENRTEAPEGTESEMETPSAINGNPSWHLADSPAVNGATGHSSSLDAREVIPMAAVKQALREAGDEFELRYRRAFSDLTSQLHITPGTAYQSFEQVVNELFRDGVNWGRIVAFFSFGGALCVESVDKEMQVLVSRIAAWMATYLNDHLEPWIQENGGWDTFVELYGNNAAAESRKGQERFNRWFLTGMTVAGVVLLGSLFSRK
test: Fluorescence polarization test for inhibition of BCL-XL binding to FITC-BIM
condition: 10 nM BCL-XL, 10 nM FITC-BIM, read-out: FP BCL-XL IC50
test-readout: IC50

Here's what some known entries look like.
* C[C@@H]1CCC(CN2CCN(c3ccc(C(=O)NS(=O)(=O)c4cc(F)c(NC[C@H]5COCCO5)c([N+](=O)[O-])c4)c(Oc4cnc5[nH]ccc5c4)c3)C[C@H]2C)=C(c2ccc(Cl)cc2)C1 [Example 22] | > 1 µM
* CC1(C)CCC(CN2CCN(c3ccc(C(=O)NS(=O)(=O)c4ccc(NCC5CCOCC5)c([N+](=O)[O-])c4)c(Oc4cnc5[nH]ccc5c4)c3)[C@@H]3CCCC[C@H]32)=C(c2ccc(Cl)cc2)C1 [Example 57] | > 1 µM

Kindly consider the entry below.
What the record says about C[C@@H]1CN(CC2=C(c3ccc(Cl)cc3)CC(C)(C)CC2)CCN1c1ccc(C(=O)NS(=O)(=O)c2cc(F)c(NC[C@H]3COCCO3)c([N+](=O)[O-])c2)c(Oc2cnc3[nH]ccc3c2)c1 [Example 46] : IC50 is > 1 µM

====

tested-on: human recombinant Bcl-XL protein (Homo sapiens)
Construct: purchased Beijing Yiqiao Shenzhou Biotechnology Co., Ltd. 10455-H0SE
test: Fluorescence polarization test for inhibition of BCL-XL binding to FITC-BIM
condition: 10 nM BCL-XL, 10 nM FITC-BIM, read-out: FP BCL-XL IC50
pIC50: −log10 of the molar value.
test-readout: pIC50

• C[C@@H]1CN(CC2=C(c3ccc(Cl)cc3)CC(C)(C)CC2)CCN1c1ccc(C(=O)NS(=O)(=O)c2ccc(NC[C@H]3COCCO3)c([N+](=O)[O-])c2)c(Oc2cnc3[nH]ccc3c2)c1 = < 6.00
• C[C@@H]1CCC(CN2CCN(c3ccc(C(=O)NS(=O)(=O)c4ccc(NC[C@H]5COCCO5)c([N+](=O)[O-])c4)c(Oc4cnc5[nH]ccc5c4)c3)C[C@H]2C)=C(c2ccc(Cl)cc2)C1 = < 6.00

Kindly consider the entry below.
Considering C[C@H]1CN(c2ccc(C(=O)NS(=O)(=O)c3cc(F)c(NCC4CCOCC4)c([N+](=O)[O-])c3)c(Oc3cnc4[nH]ccc4c3)c2)CCN1CC1=C(c2ccc(Cl)cc2)CC(C)(C)CC1 , its pIC50 with human recombinant Bcl-XL protein (Homo sapiens) was recorded as < 6.00

====

Listing: pIC50 of selected compounds
tested-on: human recombinant Bcl-2 protein (Homo sapiens)
Construct: purchased Beijing Yigiao Shenzhou Biotechnology Co., Ltd. 10195-HOSE
Sequence (P10415 whole entry): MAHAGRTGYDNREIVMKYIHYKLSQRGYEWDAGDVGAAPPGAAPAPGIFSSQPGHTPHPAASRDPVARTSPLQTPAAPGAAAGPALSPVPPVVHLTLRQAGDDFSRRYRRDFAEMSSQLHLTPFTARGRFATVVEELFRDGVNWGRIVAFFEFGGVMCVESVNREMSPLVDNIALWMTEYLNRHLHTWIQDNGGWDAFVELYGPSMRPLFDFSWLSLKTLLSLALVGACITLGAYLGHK
test: Fluorescence polarization test for inhibition of BCL-2 binding to FITC-BIM
condition: 5 nM BCL-2, 5 nM FITC-BIM, read-out: FP BCL-2 IC50
When answering, recall that pIC50 equals minus log10 of the concentration in mol/L, and write that number alone.

What the record says about C[C@@H]1CN(CC2=C(c3ccc(Cl)cc3)CC(C)(C)CC2)CCN1c1ccc(C(=O)NS(=O)(=O)c2cc(F)c(NCC3CCN(C4COC4)CC3)c([N+](=O)[O-])c2)c(Oc2cnc3[nH]ccc3c2)c1 : pIC50 is 8.09

What the record says about C[C@@H]1CN(CC2=C(c3ccc(Cl)cc3)CC(C)(C)CC2)CCN1c1ccc(C(=O)NS(=O)(=O)c2ccc(NCC3CCOCC3)c([N+](=O)[O-])c2)c(Oc2cnc3[nH]ccc3c2)c1 : pIC50 is 8.34

What the record says about C[C@@H]1CN(c2ccc(C(=O)NS(=O)(=O)c3ccc(NCC4CCOCC4)c([N+](=O)[O-])c3)c(Oc3cnc4[nH]ccc4c3)c2)CCN1CC1=C(c2ccc(Cl)cc2)CC(C)(C)C2(CC2)C1 : pIC50 is 8.45
